# System: T1, Human CD3eg linker (human)
# T1 construct: Single-chain construct; also called recombinant human CD3
# T1 chain: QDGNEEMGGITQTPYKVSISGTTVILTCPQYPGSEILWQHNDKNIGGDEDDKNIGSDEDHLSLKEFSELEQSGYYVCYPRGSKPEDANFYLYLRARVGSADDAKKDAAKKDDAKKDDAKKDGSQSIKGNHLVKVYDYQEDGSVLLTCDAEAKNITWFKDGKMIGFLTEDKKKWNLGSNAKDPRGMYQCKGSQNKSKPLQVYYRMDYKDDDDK
# Test: SPR; fold vs parent H183/L072
Each entry below lists one item and its recorded fold change of affinity value.
Number first, unit second: that is the form wanted.

H183/L072 VL S52H (antibody, name in Kabat numbering, V domains shown) VH: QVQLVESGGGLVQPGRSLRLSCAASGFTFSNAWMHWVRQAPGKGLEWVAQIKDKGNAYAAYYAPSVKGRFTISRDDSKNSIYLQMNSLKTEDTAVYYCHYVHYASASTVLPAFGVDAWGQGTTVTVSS VL: DIVMTQSPLSLPVTPGEPASISCQASQELVHMNRNTYLHWYQQKPGQAPRLLIYKVHNRFPGVPDRFSGSGSGTDFTLKISRVEAEDVGVYYCAQGTSVPFTFGQGTKLEIK: 1.7 fold
H183/L072 VL S52G (antibody, name in Kabat numbering, V domains shown) VH: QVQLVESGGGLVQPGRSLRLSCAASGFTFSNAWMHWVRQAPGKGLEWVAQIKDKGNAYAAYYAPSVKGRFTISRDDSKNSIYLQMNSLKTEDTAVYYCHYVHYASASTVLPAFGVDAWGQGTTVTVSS VL: DIVMTQSPLSLPVTPGEPASISCQASQELVHMNRNTYLHWYQQKPGQAPRLLIYKVGNRFPGVPDRFSGSGSGTDFTLKISRVEAEDVGVYYCAQGTSVPFTFGQGTKLEIK: 1.4 fold
H183/L072 VL R29E (antibody, name in Kabat numbering, V domains shown) VH: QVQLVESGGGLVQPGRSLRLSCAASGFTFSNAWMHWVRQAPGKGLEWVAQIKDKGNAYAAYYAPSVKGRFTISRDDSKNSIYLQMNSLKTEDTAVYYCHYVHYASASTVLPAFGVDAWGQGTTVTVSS VL: DIVMTQSPLSLPVTPGEPASISCQASQELVHMNENTYLHWYQQKPGQAPRLLIYKVSNRFPGVPDRFSGSGSGTDFTLKISRVEAEDVGVYYCAQGTSVPFTFGQGTKLEIK: 0.3 fold
H183/L072 VL N30E (antibody, name in Kabat numbering, V domains shown) VH: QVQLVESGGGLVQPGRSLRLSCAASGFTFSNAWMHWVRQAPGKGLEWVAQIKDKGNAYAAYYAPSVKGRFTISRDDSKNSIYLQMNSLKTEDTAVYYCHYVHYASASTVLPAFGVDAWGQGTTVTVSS VL: DIVMTQSPLSLPVTPGEPASISCQASQELVHMNRETYLHWYQQKPGQAPRLLIYKVSNRFPGVPDRFSGSGSGTDFTLKISRVEAEDVGVYYCAQGTSVPFTFGQGTKLEIK: 0.3 fold

Attention now turns to another entry.
The reported value for H183/L072 VL G91E (antibody, name in Kabat numbering, V domains shown) VH: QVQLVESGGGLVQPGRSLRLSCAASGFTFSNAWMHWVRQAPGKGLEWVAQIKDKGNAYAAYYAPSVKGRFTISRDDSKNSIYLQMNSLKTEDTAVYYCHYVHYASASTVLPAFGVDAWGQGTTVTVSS VL: DIVMTQSPLSLPVTPGEPASISCQASQELVHMNRNTYLHWYQQKPGQAPRLLIYKVSNRFPGVPDRFSGSGSGTDFTLKISRVEAEDVGVYYCAQETSVPFTFGQGTKLEIK in terms of fold change of affinity is 0 fold
